Method: Toxicity, LD50 (DL50) I.P.
Test Conditions: in vivo, ip; I.P.
Description: The pharmacological tests carried out particularly with regard to toxicity, the ulcers provoked by aspirin and serotonin, and the anti-inflammatory and antalgic effects, are summarised hereinafter. The methods used are recalled hereinafter. […]
Value Type: LD50 (mg/kg)
Give a bare numeral; the unit mg/kg is implied.

Memo: Clc1cc2cc[nH]c2c2c1OCCC2 , reported LD50: 900

Memo: COc1cc2cc[nH]c2c2c1OCCC2=O , reported LD50: 600

Memo: COc1cc2cc[nH]c2c2c1OCCC2O (stereo not drawn) , reported LD50: 1000

Memo: O=C(O)c1cc2cc(Cl)c3c(c2[nH]1)CCCO3 , reported LD50: 300

Memo: c1cc2ccc3c(c2[nH]1)CCCO3 [Example 7, 7,8,9-trihydro-pyrano[2,3-g]indole] , reported LD50: 750

Memo: O=C(O)c1cc2ccc3c(c2[nH]1)CCCO3 , reported LD50: 600

Memo: COc1cc2cc[nH]c2c2c1OCCC2 , reported LD50: 650

* * *

Kindly supply the reported Carragheenine oedema % inhibition values for the records listed here.
Method: Inhibition of oedema provoked by carragenine (anti-inflammatory effect)
Type: in vivo
Test Conditions: IP, dose equal to one tenth of the LD50 IP
Give a bare numeral; the unit % is implied.

Memo: CN(C)Cc1c[nH]c2c3c(ccc12)OCCC3 [Example 14] , reported Carragheenine oedema % inhibition: 22

Memo: COc1cc2cc[nH]c2c2c1OCCC2O (centres unmarked) [Example 24] , reported Carragheenine oedema % inhibition: 40

Memo: COc1cc2cc[nH]c2c2c1OCCC2 [Example 9] , reported Carragheenine oedema % inhibition: 39

Memo: COc1cc2cc[nH]c2c2c1OCCC2=NO [Example 23] , reported Carragheenine oedema % inhibition: 52

Memo: O=C(O)c1cc2ccc3c(c2[nH]1)CCCO3 [Example 4] , reported Carragheenine oedema % inhibition: 35

Memo: O=C(O)c1cc2cc(Cl)c3c(c2[nH]1)CCCO3 [Example 5] , reported Carragheenine oedema % inhibition: 30

Memo: Clc1cc2cc[nH]c2c2c1OCCC2 [Example 8] , reported Carragheenine oedema % inhibition: 33

Memo: COc1cc2cc[nH]c2c2c1OCCC2=O [Example 21] , reported Carragheenine oedema % inhibition: 49

* * *

Method: Toxicity, LD50 (DL50) I.P.
Test Conditions: in vivo, ip
Value Type: LD50 (mg/kg)
Give a bare numeral; the unit mg/kg is implied.

Memo: CN(C)Cc1c[nH]c2c3c(ccc12)OCCC3 , reported LD50: 180
